# targetOrTestSystem: Prolyl endopeptidase (Homo sapiens, UniProt P48147)
# Sequence (P48147 whole entry): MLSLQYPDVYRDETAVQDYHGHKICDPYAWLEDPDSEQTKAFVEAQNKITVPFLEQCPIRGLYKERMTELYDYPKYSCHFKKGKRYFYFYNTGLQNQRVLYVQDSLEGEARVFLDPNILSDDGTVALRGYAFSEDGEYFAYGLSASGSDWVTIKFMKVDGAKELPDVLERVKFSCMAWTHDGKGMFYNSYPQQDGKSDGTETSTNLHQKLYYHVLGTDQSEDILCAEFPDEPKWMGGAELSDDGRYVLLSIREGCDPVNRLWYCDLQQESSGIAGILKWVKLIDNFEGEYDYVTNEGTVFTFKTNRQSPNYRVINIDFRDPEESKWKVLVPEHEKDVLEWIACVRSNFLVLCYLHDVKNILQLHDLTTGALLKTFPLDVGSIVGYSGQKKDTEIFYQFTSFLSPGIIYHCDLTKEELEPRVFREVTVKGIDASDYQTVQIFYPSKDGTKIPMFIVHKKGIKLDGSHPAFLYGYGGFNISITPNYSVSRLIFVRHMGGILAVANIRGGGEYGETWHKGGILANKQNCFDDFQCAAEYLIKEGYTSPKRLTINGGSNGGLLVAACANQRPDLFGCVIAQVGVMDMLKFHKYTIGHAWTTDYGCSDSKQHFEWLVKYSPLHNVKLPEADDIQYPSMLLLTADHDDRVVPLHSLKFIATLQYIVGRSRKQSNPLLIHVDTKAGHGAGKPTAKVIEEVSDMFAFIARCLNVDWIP
# experiment: Inhibition of PREP (unknown origin)
measureName: IC50 (nM)
Quick reminder: number only, in nM, skip the unit.

Here "CN(CC(=O)O)C1(CCCCNCCNc2c(NCCCCOc3ccc4nccc(C(=O)NCC(=O)N5CC(F)(F)C[C@H]5C#N)c4c3)c(=O)c2=O)CN(CC(=O)O)CCN(CC(=O)O)C1" was tested on Prolyl endopeptidase (Homo sapiens, UniProt P48147), and its IC50 came to 1700

###

# experiment: Drug uptake in intestine of female nude mouse harboring null mutation of CD1 antigen complex at 5.1 to 7.4 MBq, iv measured after 15 to 60 mins by gamma counter analysis
# Type: ADME, organism-based
# protocolConditions: in vivo, dose lower 5.1 MBq, time lower 15 min, dose upper 7.4 MBq, time upper 60 min
measureName: Drug uptake

COC(C[18F])COc1ccc2nccc(C(=O)NCC(=O)N3CC(F)(F)C[C@H]3C#N)c2c1 (some centres undefined)	Active
[2H]C([2H])([18F])[N+](C)(C)CCCOc1ccc2nccc(C(=O)NCC(=O)N3CC(F)(F)C[C@H]3C#N)c2c1	Active
N#C[C@@H]1CC(F)(F)CN1C(=O)CNC(=O)c1ccnc2ccc(OCC(O)C[18F])cc12 (some centres undefined)	Active
N#C[C@@H]1CC(F)(F)CN1C(=O)CNC(=O)c1ccnc2ccc(OCC(O)C(O)C[18F])cc12 (some centres undefined)	Active

###

# experiment: Stability in female nude mouse harboring null mutation of CD1 antigen complex assessed as compound remaining at 5.1 to 7.4 MBq, iv measured at 60 mins by radio-HPLC analysis
# Assay type: ADME, organism-based
# protocolConditions: in vivo, dose 5.1-7.4 MBq, read-out: Stability
measureName: remaining at 1 h (%)
Response body: numeric value in %, unit text excluded.

get_value(item= "[2H]C([2H])([18F])[N+](C)(C)CCCOc1ccc2nccc(C(=O)NCC(=O)N3CC(F)(F)C[C@H]3C#N)c2c1" , readout=remaining at 1 h) returns 56.5

###

// IC50 lookup, one value per entry
# targetOrTestSystem: Prolyl endopeptidase FAP (Homo sapiens, UniProt Q12884)
# Sequence (Q12884 whole entry): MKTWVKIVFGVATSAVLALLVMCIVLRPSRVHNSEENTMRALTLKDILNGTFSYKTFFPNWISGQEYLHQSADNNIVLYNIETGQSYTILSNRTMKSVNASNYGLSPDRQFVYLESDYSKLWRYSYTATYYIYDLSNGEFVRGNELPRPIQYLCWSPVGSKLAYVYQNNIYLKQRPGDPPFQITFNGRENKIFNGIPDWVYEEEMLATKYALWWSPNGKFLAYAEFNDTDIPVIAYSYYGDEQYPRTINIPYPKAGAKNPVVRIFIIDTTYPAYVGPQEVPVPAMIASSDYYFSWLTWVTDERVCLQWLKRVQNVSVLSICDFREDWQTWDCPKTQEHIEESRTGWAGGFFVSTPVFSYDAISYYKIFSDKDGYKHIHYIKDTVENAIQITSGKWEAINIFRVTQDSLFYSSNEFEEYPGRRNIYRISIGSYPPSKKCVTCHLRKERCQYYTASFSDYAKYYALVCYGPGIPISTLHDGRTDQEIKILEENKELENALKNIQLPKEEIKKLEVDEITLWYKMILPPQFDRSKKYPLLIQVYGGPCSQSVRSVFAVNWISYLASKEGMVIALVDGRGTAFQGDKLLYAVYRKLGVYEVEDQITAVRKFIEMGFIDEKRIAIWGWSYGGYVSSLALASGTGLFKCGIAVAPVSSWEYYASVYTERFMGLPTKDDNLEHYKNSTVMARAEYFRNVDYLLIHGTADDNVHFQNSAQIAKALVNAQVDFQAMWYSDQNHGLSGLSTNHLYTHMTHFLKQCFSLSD
# experiment: Inhibition of FAP (unknown origin) using Z-Gly-Pro-7-amino-4-methylcoumarine as fluorogenic substrate preincubated for 15 mins followed by substrate addition and measured after 15 mins
Just the number please, in nM, no unit attached.

Look over these answered cases.
CC1(C)O[C@@H](CF)[C@H](COc2ccc3nccc(C(=O)NCC(=O)N4CC(F)(F)C[C@H]4C#N)c3c2)O1	0.46
COC(CF)COc1ccc2nccc(C(=O)NCC(=O)N3CC(F)(F)C[C@H]3C#N)c2c1 (some centres undefined)	1.4
N#C[C@@H]1CC(F)(F)CN1C(=O)CNC(=O)c1ccnc2ccc(OCC(O)CF)cc12 (some centres undefined)	4.37

// next entry
Noted IC50 for "N#C[C@@H]1CC(F)(F)CN1C(=O)CNC(=O)c1ccnc2ccc(OC[C@H](O)[C@@H](O)CF)cc12" , tested on Prolyl endopeptidase FAP (Homo sapiens, UniProt Q12884): 1.77

###

# targetOrTestSystem: Dipeptidyl peptidase 4 (Homo sapiens, UniProt P27487)
# Sequence (P27487 whole entry): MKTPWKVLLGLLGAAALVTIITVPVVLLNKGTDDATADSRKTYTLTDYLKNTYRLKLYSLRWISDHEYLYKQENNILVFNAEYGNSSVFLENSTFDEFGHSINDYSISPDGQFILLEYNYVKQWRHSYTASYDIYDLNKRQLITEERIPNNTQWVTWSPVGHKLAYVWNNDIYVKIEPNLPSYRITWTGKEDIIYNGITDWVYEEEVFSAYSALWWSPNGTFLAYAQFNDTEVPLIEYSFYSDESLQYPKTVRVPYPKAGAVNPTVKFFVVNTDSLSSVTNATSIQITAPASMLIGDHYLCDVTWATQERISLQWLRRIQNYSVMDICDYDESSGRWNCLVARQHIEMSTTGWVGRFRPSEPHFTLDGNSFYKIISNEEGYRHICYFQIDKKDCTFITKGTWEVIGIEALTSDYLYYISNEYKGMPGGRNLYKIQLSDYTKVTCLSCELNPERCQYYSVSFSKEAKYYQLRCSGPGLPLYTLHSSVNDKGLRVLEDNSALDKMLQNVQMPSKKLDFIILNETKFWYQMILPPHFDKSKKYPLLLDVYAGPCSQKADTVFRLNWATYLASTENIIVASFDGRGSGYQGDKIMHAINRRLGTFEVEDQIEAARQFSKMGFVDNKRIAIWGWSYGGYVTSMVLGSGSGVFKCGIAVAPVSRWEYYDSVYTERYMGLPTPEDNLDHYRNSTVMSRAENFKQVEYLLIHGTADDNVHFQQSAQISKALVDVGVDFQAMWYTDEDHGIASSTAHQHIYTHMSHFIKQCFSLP
measureName: IC50

Lab note: measured IC50 of "CC1(C)O[C@@H](CF)[C@H](COc2ccc3nccc(C(=O)NCC(=O)N4CC(F)(F)C[C@H]4C#N)c3c2)O1" was > 10 µM

IC50 for "N#C[C@@H]1CC(F)(F)CN1C(=O)CNC(=O)c1ccnc2ccc(OC[C@H](O)[C@@H](O)CF)cc12" is > 10 µM

###

# targetOrTestSystem: Dipeptidyl peptidase 8 (Homo sapiens, UniProt Q6V1X1)
# Sequence (Q6V1X1 whole entry): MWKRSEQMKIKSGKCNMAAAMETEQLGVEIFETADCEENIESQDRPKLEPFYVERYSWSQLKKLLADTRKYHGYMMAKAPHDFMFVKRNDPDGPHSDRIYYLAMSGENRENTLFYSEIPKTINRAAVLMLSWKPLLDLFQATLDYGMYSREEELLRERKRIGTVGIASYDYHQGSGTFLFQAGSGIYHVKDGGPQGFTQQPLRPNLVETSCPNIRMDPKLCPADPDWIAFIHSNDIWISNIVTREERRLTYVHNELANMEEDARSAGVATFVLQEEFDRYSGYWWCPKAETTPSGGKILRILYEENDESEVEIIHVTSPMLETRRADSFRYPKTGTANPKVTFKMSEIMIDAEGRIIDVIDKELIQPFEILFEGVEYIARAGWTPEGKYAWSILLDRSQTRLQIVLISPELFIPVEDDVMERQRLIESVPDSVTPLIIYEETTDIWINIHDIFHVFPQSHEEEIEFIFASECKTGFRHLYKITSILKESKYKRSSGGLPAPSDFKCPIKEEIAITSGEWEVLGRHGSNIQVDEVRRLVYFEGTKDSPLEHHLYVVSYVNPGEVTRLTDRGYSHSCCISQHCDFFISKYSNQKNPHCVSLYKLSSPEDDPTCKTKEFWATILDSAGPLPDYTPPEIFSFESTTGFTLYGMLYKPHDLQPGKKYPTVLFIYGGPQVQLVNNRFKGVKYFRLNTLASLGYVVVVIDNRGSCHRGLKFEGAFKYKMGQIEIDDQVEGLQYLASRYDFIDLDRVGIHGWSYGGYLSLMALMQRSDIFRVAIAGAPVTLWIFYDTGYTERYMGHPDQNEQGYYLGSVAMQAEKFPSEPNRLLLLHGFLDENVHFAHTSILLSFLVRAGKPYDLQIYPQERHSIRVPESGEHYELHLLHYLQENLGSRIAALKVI
# experiment: Inhibition of DPP8 (unknown origin)
measureName: IC50 (µM)
// note: answer is a bare numeric in µM

Looking up "N#C[C@@H]1CC(F)(F)CN1C(=O)CNC(=O)c1ccnc2ccccc12" , I found its IC50 recorded as 4.7

###

# experiment: Ratio of drug level in tumor to muscle of female nude mouse harboring null mutation of CD1 antigen complex xenografted with human U-87 MG cells at 5 to 7.4 MBq, iv measured at 60 mins postinjection by gamma counter analysis
# Format: ADME, organism-based
# protocolConditions: in vivo, 1 h, dose 5-7.4 MBq
This section presents molecules with their documented Ratio values.

Example entries and their recorded answers appear below.
[2H]C([2H])([18F])[N+](C)(C)CCCOc1ccc2nccc(C(=O)NCC(=O)N3CC(F)(F)C[C@H]3C#N)c2c1	6.54
N#C[C@@H]1CC(F)(F)CN1C(=O)CNC(=O)c1ccnc2ccc(OCC(O)C[18F])cc12 (some centres undefined)	3.6
N#C[C@@H]1CC(F)(F)CN1C(=O)CNC(=O)c1ccnc2ccc(OCC(O)C(O)C[18F])cc12 (some centres undefined)	5.26

Let us examine a further case.
Looking up COC(C[18F])COc1ccc2nccc(C(=O)NCC(=O)N3CC(F)(F)C[C@H]3C#N)c2c1 (some centres undefined) , I see its Ratio listed as 6.48

###

# targetOrTestSystem: Dipeptidyl peptidase 8 (Homo sapiens)
# experiment: Inhibition of DPP8 (unknown origin) using Ala-Pro-paranitroanilide as chromogenic substrate preincubated for 15 mins followed by substrate addition and measured after 15 mins
pIC50: −log10 of the molar value.
measureName: pIC50

Use these answered entries as a reference point.
N#C[C@@H]1CC(F)(F)CN1C(=O)CNC(=O)c1ccnc2ccc(OCC(O)CF)cc12 (some centres undefined)	< 5.00
COC(CF)COc1ccc2nccc(C(=O)NCC(=O)N3CC(F)(F)C[C@H]3C#N)c2c1 (some centres undefined)	5.24
N#C[C@@H]1CC(F)(F)CN1C(=O)CNC(=O)c1ccnc2ccc(OC[C@H](O)[C@@H](O)CF)cc12	< 5.00

Turning now to a further compound:
For "CC1(C)O[C@@H](CF)[C@H](COc2ccc3nccc(C(=O)NCC(=O)N4CC(F)(F)C[C@H]4C#N)c3c2)O1" the compound record lists pIC50 as < 5.00

###

List of Ratio values.
# experiment: Ratio of drug level in tumor to blood of female nude mouse harboring null mutation of CD1 antigen complex xenografted with human U-87 MG cells at 5 to 7.4 MBq, iv measured at 60 mins postinjection by gamma counter analysis
# Type: ADME, organism-based
# protocolConditions: tumour, 1 h, dose 5-7.4 MBq

Example results:
COC(C[18F])COc1ccc2nccc(C(=O)NCC(=O)N3CC(F)(F)C[C@H]3C#N)c2c1 (some centres undefined)	5.01
N#C[C@@H]1CC(F)(F)CN1C(=O)CNC(=O)c1ccnc2ccc(OCC(O)C(O)C[18F])cc12 (some centres undefined)	6.56
[2H]C([2H])([18F])[N+](C)(C)CCCOc1ccc2nccc(C(=O)NCC(=O)N3CC(F)(F)C[C@H]3C#N)c2c1	6.35

Then this compound:
Looking up N#C[C@@H]1CC(F)(F)CN1C(=O)CNC(=O)c1ccnc2ccc(OCC(O)C[18F])cc12 (some centres undefined) , I see its Ratio listed as 6.58

###

# targetOrTestSystem: Dipeptidyl peptidase 9 (Homo sapiens, UniProt Q86TI2)
# Sequence (Q86TI2 whole entry): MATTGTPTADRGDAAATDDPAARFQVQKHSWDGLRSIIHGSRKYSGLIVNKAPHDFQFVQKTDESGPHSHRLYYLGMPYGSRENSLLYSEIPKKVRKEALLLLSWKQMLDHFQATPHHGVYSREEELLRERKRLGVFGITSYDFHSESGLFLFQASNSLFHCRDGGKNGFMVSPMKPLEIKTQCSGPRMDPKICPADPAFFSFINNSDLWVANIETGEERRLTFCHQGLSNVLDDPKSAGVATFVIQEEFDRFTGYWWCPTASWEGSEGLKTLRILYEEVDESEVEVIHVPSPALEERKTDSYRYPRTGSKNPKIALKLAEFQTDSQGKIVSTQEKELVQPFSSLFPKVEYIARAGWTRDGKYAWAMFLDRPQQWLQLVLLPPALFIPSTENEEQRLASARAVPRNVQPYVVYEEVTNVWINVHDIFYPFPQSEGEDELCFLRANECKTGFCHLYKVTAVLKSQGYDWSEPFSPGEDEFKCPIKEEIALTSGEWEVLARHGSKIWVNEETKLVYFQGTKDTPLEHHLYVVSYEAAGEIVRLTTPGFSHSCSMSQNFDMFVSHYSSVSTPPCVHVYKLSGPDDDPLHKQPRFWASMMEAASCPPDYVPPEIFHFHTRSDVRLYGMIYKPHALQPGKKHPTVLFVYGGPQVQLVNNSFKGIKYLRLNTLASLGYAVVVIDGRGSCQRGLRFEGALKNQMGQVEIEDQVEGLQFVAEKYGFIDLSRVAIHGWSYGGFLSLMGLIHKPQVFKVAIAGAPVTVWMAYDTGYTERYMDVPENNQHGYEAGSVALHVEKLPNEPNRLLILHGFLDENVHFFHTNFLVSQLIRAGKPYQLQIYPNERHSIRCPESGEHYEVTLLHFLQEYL
measureName: IC50

The compound N#C[C@@H]1CC(F)(F)CN1C(=O)CNC(=O)c1ccnc2ccc(OCC(O)CF)cc12 (stereo partly specified) on Dipeptidyl peptidase 9 (Homo sapiens, UniProt Q86TI2): IC50 was > 10 µM

###

# experiment: Octanol/water partition coefficient, logD of compound at 74 kBq incubated for 2 mins by gamma counter method
# Format: physicochemical
measureName: logD at 2 min
Answer field: number only, no words.

Check out these entries, answers already filled in.
N#C[C@@H]1CC(F)(F)CN1C(=O)CNC(=O)c1ccnc2ccc(OCC(O)C[18F])cc12 (some centres undefined)	0.18
[2H]C([2H])([18F])[N+](C)(C)CCCOc1ccc2nccc(C(=O)NCC(=O)N3CC(F)(F)C[C@H]3C#N)c2c1	-1.77
COC(C[18F])COc1ccc2nccc(C(=O)NCC(=O)N3CC(F)(F)C[C@H]3C#N)c2c1 (some centres undefined)	0.77

Would you kindly look at the next entry?
Per the record, N#C[C@@H]1CC(F)(F)CN1C(=O)CNC(=O)c1ccnc2ccc(OCC(O)C(O)C[18F])cc12 (some centres undefined) has logD at 2 min of -0.27

###

# experiment: Ratio of drug level in tumor to liver of female nude mouse harboring null mutation of CD1 antigen complex xenografted with human U-87 MG cells at 5 to 7.4 MBq, iv measured at 60 mins postinjection by gamma counter analysis
# Assay type: ADME, organism-based
# protocolConditions: in vivo, 1 h, dose 5-7.4 MBq
This listing pairs compounds with measured Ratio.

N#C[C@@H]1CC(F)(F)CN1C(=O)CNC(=O)c1ccnc2ccc(OCC(O)C[18F])cc12 (some centres undefined)	2.37

Lab note: measured Ratio of COC(C[18F])COc1ccc2nccc(C(=O)NCC(=O)N3CC(F)(F)C[C@H]3C#N)c2c1 (some centres undefined) was 1.64

Recorded Ratio (compound N#C[C@@H]1CC(F)(F)CN1C(=O)CNC(=O)c1ccnc2ccc(OCC(O)C(O)C[18F])cc12 (some centres undefined) ): 1.67

Given item "[2H]C([2H])([18F])[N+](C)(C)CCCOc1ccc2nccc(C(=O)NCC(=O)N3CC(F)(F)C[C@H]3C#N)c2c1" , the value recorded as its Ratio is 4.77
